- measurementDescription: Selectivity index, ratio of CC50 cytotoxicity against human HepG2.2.15 cells assessed as reduction in cell viability to EC50 for antiviral activity against wild type HBV infected in human HepG2 2.2.15 cells assessed as reduction in viral replication by DNA HYB (Vision)/neutral red (Tox) assay
- Type: toxicity, cell-based
- recordedConditions: read-out: Selectivity Index
measure: selectivity ratio
A bare number is all that is needed in reply.

Query :: For the compound shown here, Nc1ccn([C@@H]2CS[C@H](CO)O2)c(=O)n1 , give the reported selectivity ratio.
Result :: 57400
